Give measured CC50 for each item. Keep answers brief.
Test system: Vero
ASSAY_EXPLANATION: Cytotoxicity against African green monkey Vero cells after 48 hrs by MTT assay
Type: cell-based
MEASUREMENT_SETUP: chlorocebus sabaeus

Some solved entries appear below for comparison.
{"TEST_SMILES": "CC(C)(NC(=O)c1ccc([N+](=O)[O-])o1)c1ccc(C(F)(F)F)cc1", "READOUT_KIND": "CC50", "READOUT_VALUE": "> 150 µM"}
{"TEST_SMILES": "O=C(Nc1ccc2ccccc2c1)c1ccc([N+](=O)[O-])o1", "READOUT_KIND": "CC50", "READOUT_VALUE": "> 150 µM"}

We next turn to a different molecule, shown below.
Note to self: CC50 recorded for "COc1ccc(OCc2ccc(C(C)(C)NC(=O)c3ccc([N+](=O)[O-])o3)cc2)cc1" was > 120 µM
